test: Selectivity for HCV NS3 protease over human neutrophil elastase
Readout: Ratio

The examples below pair each entry with its known result.
{"columns": ["Compound", "Ratio"],
 "data": [
  ["C=CCNC(=O)C(=O)C(CC1CC1)NC(=O)[C@@H]1[C@@H]2[C@H](CN1C(=O)[C@@H](NC(=O)NC(CN1C(=O)CC(C)(C)CC1=O)C(C)(C)C)C(C)(C)C)C2(C)C (single isomer, unassigned)", 7100],
  ["C=CCNC(=O)C(=O)C(CCCC)NC(=O)[C@@H]1[C@@H]2[C@H](CN1C(=O)[C@@H](NC(=O)NC(CN1C(=O)CC3(CCCC3)CC1=O)C(C)(C)C)C(C)(C)C)C2(C)C (single isomer, unassigned)", 3800],
  ["CCCCC(NC(=O)[C@@H]1[C@@H]2[C@H](CN1C(=O)[C@@H](NC(=O)NC(CN1C(=O)CC(C)(C)CC1=O)C(C)(C)C)C(C)(C)C)C2(C)C)C(=O)C(=O)NCC (single isomer, unassigned)", 8200]
]}

1. C=CCNC(=O)C(=O)C(CCCC)NC(=O)[C@@H]1[C@@H]2[C@H](CN1C(=O)[C@@H](NC(=O)NC(CN1C(=O)C3CCC(C3)C1=O)C(C)(C)C)C(C)(C)C)C2(C)C (single isomer, unassigned)
2. C=CCNC(=O)C(=O)C(CCC)NC(=O)[C@@H]1[C@@H]2[C@H](CN1C(=O)[C@@H](NC(=O)NC(CN1C(=O)CC(C)(C)CC1=O)C(C)(C)C)C(C)(C)C)C2(C)C (single isomer, unassigned)
Problem: Recorded Ratio values differ for 1 and 2 ; which one is higher? Your choice should be expressed through its label.
Solution: 1

---

experiment: AUC in dog at 2 mg/kg, iv administered with 0.4% hydroxypropyl methylcellulose; assay type: ADME, organism-based, Canis lupus familiaris; set-up: dose 2 mg/kg, route intravenous; settings: in vivo
Readout: AUC (µM·h)
Please give a number only; it is taken to be in µM·h.

Problem: Which AUC is reported for this compound? C=CCNC(=O)C(=O)C(CC1CC1)NC(=O)[C@@H]1[C@@H]2[C@H](CN1C(=O)[C@@H](NC(=O)NC(CN1C(=O)CC(C)(C)CC1=O)C(C)(C)C)C(C)(C)C)C2(C)C (single isomer, unassigned)
Solution: 2.2

---

assay: Inhibition of HCV NS3 protease in absence of human serum; set-up: species or system Hepacivirus hominis
pKi: −log10 of the molar value.
Readout: pKi

# example entries with known answers
{"columns": ["Molecule", "Recorded Measurement"],
 "data": [
  ["C=CCNC(=O)C(=O)C(CCCC)NC(=O)[C@@H]1[C@@H]2[C@H](CN1C(=O)[C@@H](NC(=O)NC(CN1C(=O)CC3(CCCC3)CC1=O)C(C)(C)C)C(C)(C)C)C2(C)C (single isomer, unassigned)", 8.22],
  ["C#CCCC(NC(=O)[C@@H]1[C@@H]2[C@H](CN1C(=O)[C@@H](NC(=O)NC(CN1C(=O)CC(C)(C)CC1=O)C(C)(C)C)C(C)(C)C)C2(C)C)C(=O)C(=O)NCC=C (single isomer, unassigned)", 8.70]
]}

I. C=CCNC(=O)C(=O)C(CCCC)NC(=O)[C@@H]1[C@@H]2[C@H](CN1C(=O)[C@@H](NC(=O)NC(CN1C(=O)CC(C)(C)CC1=O)C(C)(C)C)C1CCCCC1)C2(C)C (single isomer, unassigned)
II. C=CCNC(=O)C(=O)C(CCCC)NC(=O)[C@@H]1[C@@H]2[C@H](CN1C(=O)[C@@H](NC(=O)NC(CN1C(=O)N(C)C(C)(C)C1=O)C(C)(C)C)C(C)(C)C)C2(C)C (single isomer, unassigned)
Problem: Between the entries labelled I and II , which has a larger pKi value on record? Write down the label of the entry you select.
Solution: I
(I: 8.70, II: 8.10)
